Data credit: ChEMBL document CHEMBL2151009

Target: Hypoxia inducible factors; HIF-1-alpha, HIF-2-alpha (Homo sapiens, UniProt Q16665+Q99814)
Experiment: Inhibition of hypoxia-induced HIF1 activation in human T47D cells after 16 hrs by HRE3-TK-luciferase reporter gene assay
Type: cell-based
METRIC: IC50 (µM)

C[C@@]12CCCc3coc(c31)C(=O)c1cc3c(cc12)C(=O)C1=C(NCCS1(=O)=O)C3=O [ADOCIAQUINONE B]; 4.6
C[C@@]12CCCc3coc(c31)C(=O)c1cc3c(cc12)C(=O)C=C(CO)C3=O; 1.7
C[C@@]12CCCc3coc(c31)C(=O)c1cc3c(cc12)C(=O)C=CC3=O [XESTOQUINONE]; 12.3

P = C[C@@]12CCCc3coc(c31)C(=O)c1cc3c(cc12)C(=O)C1=NCCS(=O)(=O)C1=C3O [ADOCIAQUINONE A]
Q = C[C@@]12CCCc3coc(c31)C(=O)c1cc3c(cc12)C(=O)CCC3=O
R = C[C@@]12CCCc3coc(c31)C(=O)c1cc3c(cc12)C(=O)C(CO)=CC3=O
## Task Given 3 compounds, produce a descending ranking by IC50. Labels, ranked as asked.
## Result Q, P, R
(Q: 10.6 µM, P: 6.4 µM, R: 2.3 µM)

====

Biological target: Hypoxia inducible factors; HIF-1-alpha, HIF-2-alpha (Homo sapiens, UniProt Q16665+Q99814)
Test: Inhibition of HIF1-mediated VEGF production in human T47D cells under 1,10-phenanthroline-induced hypoxic condition at 10 uM after 16 hrs by ELISA
Format: cell-based
The source made the active and inactive calls. The rule behind the calls is not given here.
Log the outcome using a class from 1 (active), 0 (inactive)

Field: example entries. Status: answers known.
C[C@@]12CCCc3coc(c31)C(=O)c1cc3c(cc12)C(=O)C(CO)=CC3=O; 1
C[C@@]12CCCc3coc(c31)C(=O)c1cc3c(cc12)C(=O)C1=C(NCCS1(=O)=O)C3=O [ADOCIAQUINONE B]; 1

## Task Call for entry `C[C@@]12CCCc3coc(c31)C(=O)c1cc3c(cc12)C(=O)C=C(CO)C3=O` :
## Result 1

## Task Call for entry C[C@@]12CCCc3coc(c31)C(=O)c1cc3c(cc12)C(=O)C1=NCCS(=O)(=O)C1=C3O [ADOCIAQUINONE A] :
## Result 1

## Task Call for entry `C[C@@]12CCCc3coc(c31)C(=O)c1cc3c(cc12)C(=O)CCC3=O` :
## Result 0

## Task Call for entry C[C@@]12CCCc3coc(c31)C(=O)c1cc3c(cc12)C(=O)C=CC3=O [XESTOQUINONE] :
## Result 0
